Where these numbers come from: ChEMBL document CHEMBL1275588

# Tested on: Plasmodium falciparum
# Protocol: Antimalarial activity against Plasmodium falciparum W2 assessed as inhibition of [3H]hypoxanthine uptake organism selected on 50 ng/mL compound concentration
# Assay type: functional, organism-based
Measure: pIC50
In plain terms, pIC50 is the concentration in mol/L turned into minus its base-10 logarithm.

Qu. Request the reported pIC50 associated with C[C@@H]1[C@H](OCc2ccc(C(=O)O)cc2)O[C@@H]2O[C@@]3(C)CC[C@@H]4[C@@H](C)CC[C@@H]1[C@]24OO3 [ARTELINIC ACID]
Ans. 7.63
